All values here come from the supplement of paper PMC8728848.

target: Gal(a1-4)Gal(b1-4)GlcNAc; experiment: glycan array binding signal (z-score within array); higher = stronger binding; details: glycan notation: IUPAC condensed, linker removed
The entries come from a sample that favours the strongest signals as a whole.
measure: glycan array binding signal (z-score)
One number for each entry.

Examples from the recorded data:
PA-IL (Pseudomonas aeruginosa), Q05097 (protein) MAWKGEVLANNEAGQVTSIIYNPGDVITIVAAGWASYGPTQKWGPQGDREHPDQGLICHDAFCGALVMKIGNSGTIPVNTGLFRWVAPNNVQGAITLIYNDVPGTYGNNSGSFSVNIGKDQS :: 4.79
F17-L (Escherichia coli) (protein) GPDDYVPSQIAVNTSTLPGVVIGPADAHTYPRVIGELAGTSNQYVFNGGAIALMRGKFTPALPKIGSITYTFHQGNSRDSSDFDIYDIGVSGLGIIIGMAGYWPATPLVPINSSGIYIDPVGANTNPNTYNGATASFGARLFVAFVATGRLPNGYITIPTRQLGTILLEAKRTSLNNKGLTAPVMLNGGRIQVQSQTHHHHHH :: 1.8

[Q] Please list glycan array binding signal (z-score) recorded for the binder RBMC1 (Vibrio cholerae) (protein) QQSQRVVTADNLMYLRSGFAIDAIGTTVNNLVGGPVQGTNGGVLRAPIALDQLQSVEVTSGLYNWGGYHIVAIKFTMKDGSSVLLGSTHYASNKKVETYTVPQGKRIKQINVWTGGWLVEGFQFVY
[A] -0.178
